system_under_test: PI3Kα (Homo sapiens, UniProt P42336)
Sequence (P42336 whole entry): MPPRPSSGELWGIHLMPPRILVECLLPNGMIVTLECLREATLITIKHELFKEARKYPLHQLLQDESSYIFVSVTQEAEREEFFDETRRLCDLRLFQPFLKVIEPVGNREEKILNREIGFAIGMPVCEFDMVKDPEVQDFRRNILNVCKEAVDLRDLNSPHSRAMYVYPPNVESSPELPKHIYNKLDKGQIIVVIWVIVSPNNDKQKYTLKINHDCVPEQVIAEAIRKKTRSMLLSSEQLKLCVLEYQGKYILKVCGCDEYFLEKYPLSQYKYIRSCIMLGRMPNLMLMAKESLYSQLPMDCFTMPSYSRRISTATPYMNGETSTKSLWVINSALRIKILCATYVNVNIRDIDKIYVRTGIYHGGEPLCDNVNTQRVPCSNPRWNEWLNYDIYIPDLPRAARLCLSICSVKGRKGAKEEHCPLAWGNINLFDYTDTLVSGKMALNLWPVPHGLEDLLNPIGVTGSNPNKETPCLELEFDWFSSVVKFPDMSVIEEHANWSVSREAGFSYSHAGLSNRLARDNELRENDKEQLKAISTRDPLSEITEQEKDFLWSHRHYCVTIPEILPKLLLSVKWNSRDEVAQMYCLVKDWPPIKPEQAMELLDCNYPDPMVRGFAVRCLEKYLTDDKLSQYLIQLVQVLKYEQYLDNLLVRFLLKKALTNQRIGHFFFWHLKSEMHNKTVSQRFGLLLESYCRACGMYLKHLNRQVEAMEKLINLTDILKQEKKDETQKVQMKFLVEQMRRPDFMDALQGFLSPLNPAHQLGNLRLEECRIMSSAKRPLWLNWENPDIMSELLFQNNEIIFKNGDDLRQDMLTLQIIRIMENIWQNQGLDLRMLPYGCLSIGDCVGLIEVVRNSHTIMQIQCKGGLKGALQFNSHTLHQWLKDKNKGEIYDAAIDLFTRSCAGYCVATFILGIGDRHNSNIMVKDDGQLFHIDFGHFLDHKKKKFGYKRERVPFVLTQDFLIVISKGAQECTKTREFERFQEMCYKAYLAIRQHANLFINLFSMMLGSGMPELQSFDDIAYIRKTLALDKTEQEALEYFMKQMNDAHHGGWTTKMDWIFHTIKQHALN
Sequence (P27986 whole entry partner): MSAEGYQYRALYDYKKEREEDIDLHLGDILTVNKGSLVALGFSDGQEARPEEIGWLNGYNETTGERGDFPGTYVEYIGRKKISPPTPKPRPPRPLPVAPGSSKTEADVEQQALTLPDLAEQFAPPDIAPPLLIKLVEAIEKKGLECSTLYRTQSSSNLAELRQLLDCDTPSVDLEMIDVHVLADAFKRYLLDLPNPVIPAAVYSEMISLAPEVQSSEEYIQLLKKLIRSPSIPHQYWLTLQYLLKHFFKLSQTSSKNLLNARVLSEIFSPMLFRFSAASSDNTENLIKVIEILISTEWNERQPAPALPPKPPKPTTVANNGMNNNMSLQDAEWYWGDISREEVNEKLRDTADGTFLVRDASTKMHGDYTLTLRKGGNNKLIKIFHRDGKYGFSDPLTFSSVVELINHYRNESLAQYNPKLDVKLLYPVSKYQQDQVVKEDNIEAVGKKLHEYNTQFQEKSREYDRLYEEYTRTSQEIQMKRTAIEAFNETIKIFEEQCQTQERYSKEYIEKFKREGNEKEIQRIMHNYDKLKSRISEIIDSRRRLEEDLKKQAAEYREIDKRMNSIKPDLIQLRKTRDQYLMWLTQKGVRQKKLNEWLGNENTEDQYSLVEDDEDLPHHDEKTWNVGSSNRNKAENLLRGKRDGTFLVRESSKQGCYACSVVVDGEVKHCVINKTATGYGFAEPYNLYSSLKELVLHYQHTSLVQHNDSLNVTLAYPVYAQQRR
pIC50: −log10 of the molar value.
measurement_name: pIC50

Guide cases for pIC50, answers given:
{"compound": "COc1ncc(-c2ccc3ncn(CC(C)C(=O)NCCF)c(=O)c3c2)cc1NS(=O)(=O)c1ccc(F)cc1Cl (single isomer, unassigned) [WX067]", "system_under_test": "PI3Kα (Homo sapiens, UniProt P42336)", "pIC50": 8.61}
{"compound": "CNC(=O)C(C)Cn1cnc2ccc(-c3cnc(OC)c(NS(=O)(=O)c4cc(C)ccc4Cl)c3)cc2c1=O (single isomer, unassigned) [WX213]", "system_under_test": "PI3Kα (Homo sapiens, UniProt P42336)", "pIC50": 8.34}
{"compound": "CNC(=O)[C@@H](C)Cn1cnc2ccc(-c3cnc(OC)c(NS(=O)(=O)c4ccccc4F)c3)cc2c1=O", "system_under_test": "PI3Kα (Homo sapiens, UniProt P42336)", "pIC50": 8.43}

I = CCN(CC)CCn1cnc2ccc(-c3cnc(OC)c(NS(=O)(=O)c4ccc(F)cc4F)c3)cc2c1=O [R012, reference compound]
II = CNC(=O)[C@H](C)Cn1cnc2ccc(-c3cnc(OC)c(NS(=O)(=O)c4cc(Cl)ccc4Cl)c3)cc2c1=O
III = COCCNC(=O)C(C)Cn1cnc2ccc(-c3cnc(OC)c(NS(=O)(=O)c4ccc(F)cc4Cl)c3)cc2c1=O (single isomer, unassigned)
IV = CNC(=O)C(C)Cn1cnc2ccc(-c3cnc(CO)c(NS(=O)(=O)c4ccc(F)cc4Cl)c3)cc2c1=O (single isomer, unassigned)
V = COc1ncc(-c2ccc3ncn(CCN(C)C)c(=O)c3c2)cc1NS(=O)(=O)c1ccc(F)cc1 [R011, reference compound]
Req: Sort (5 compounds) by pIC50: min first. Please list each label once, in the requested order.
Resp: V, IV, I, III, II

A = COc1ncc(-c2ccc3ncn(CCCC(=O)N4CCCC4)c(=O)c3c2)cc1NS(=O)(=O)c1ccc(F)cc1Cl
B = CNC(=O)[C@H](C)Cn1cnc2ccc(-c3cnc(OC)c(NS(=O)(=O)c4ccc(OC)cc4)c3)cc2c1=O
C = Cc1nc(C)c(S(=O)(=O)Nc2cc(-c3ccc4ncn(CCCC(=O)N5CCCC5)c(=O)c4c3)cnc2C)s1
Req: Could you please sort these 3 entries by pIC50 from high to low? Return value: ordered labels per request.
Resp: C, A, B
(C: 8.83, A: 8.31, B: 7.89)

P = CNC(=O)[C@@H](C)Cn1cnc2ccc(-c3cnc(OC)c(NS(=O)(=O)c4ccc(F)cc4C(F)(F)F)c3)cc2c1=O
Q = CNC(=O)C(C)Cn1cnc2ccc(-c3cnc(OC)c(NS(=O)(=O)c4cccc(C)c4F)c3)cc2c1=O (single isomer, unassigned)
Req: So which one has the bigger pIC50 here, P or Q ? // caller expects the label of the chosen entry
Resp: P

The reported numbers originate from patent US20200317660A1.
